The measurements presented in this section are drawn from patent US8691761B2.

- test.target: hSSTR4 (Homo sapiens, UniProt P31391)
- Construct: expressed in transfected cells; host or cells: CHO-K1 or CCL39 cells
- Sequence (P31391 whole entry): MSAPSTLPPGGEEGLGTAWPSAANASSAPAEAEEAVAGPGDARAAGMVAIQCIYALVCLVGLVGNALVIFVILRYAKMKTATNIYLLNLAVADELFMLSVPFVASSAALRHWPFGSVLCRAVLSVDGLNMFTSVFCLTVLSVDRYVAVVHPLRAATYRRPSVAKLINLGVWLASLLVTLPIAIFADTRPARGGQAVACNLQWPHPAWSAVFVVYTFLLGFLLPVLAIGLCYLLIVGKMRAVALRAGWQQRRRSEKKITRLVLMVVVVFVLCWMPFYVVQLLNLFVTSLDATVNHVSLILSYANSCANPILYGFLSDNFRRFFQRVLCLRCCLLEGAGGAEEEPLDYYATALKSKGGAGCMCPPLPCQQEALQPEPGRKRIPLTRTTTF
- assay.explanation: Receptor autoradiography, displacement of 125I-[Leu8,D-Trp22,Tyr25]-SRIF-28 from membrane pellet sections
- Format: binding
- assay.conditions: Table 3; mean ± SEM when N ≧ 3; read-out: sst4 binding affinity (IC50)
Bridge positions count the residues as written; N and C are the ends. Square brackets hold non-standard residues; d marks the D form. Peptide text beside a SMILES is read from it. dPhe(4-NHCONH2) = NC(=O)Nc1ccc(C[C@@H](N)C(=O)O)cc1; Phe(4-NHCONH2) = NC(=O)Nc1ccc(C[C@H](N)C(=O)O)cc1; Phe(4-Cl) = N[C@@H](Cc1ccc(Cl)cc1)C(=O)O
Listed next: entries and their corresponding IC50.

compound	IC50
C[C@@H](O)[C@@H]1NC(=O)[C@H](CCCCN)NC(=O)[C@@H](Cc2c[nH]c3ccccc23)NC(=O)[C@H](Cc2ccc(NC(N)=O)cc2)NC(=O)[C@H](NC(=O)[C@@H](N)Cc2ccc(Cl)cc2)CSSC[C@@H](C(=O)N[C@@H](Cc2ccc(NC(N)=O)cc2)C(N)=O)NC1=O	551 nM
CONC(=O)Nc1ccc(C[C@@H]2NC(=O)[C@H](NC(=O)[C@@H](N)Cc3ccc(Cl)cc3)CSSC[C@@H](C(=O)N[C@@H](Cc3ccc4ccccc4c3)C(N)=O)NC(=O)[C@H]([C@@H](C)O)NC(=O)[C@H](CCCCN)NC(=O)[C@@H](Cc3c[nH]c4ccccc34)NC2=O)cc1	883 nM

We next turn to a different compound, shown below.
[ask] Could you share which IC50 value was measured for C[C@@H](O)[C@@H]1NC(=O)[C@H](CCCCN)NC(=O)[C@@H](Cc2c[nH]c3ccccc23)NC(=O)[C@H](Cc2ccc(NC(N)=O)cc2)NC(=O)[C@H](NC(=O)[C@@H](N)Cc2ccc(Cl)cc2)CSSC[C@@H](C(=O)N[C@H](Cc2ccc(NC(N)=O)cc2)C(=O)NCC(=O)O)NC1=O [compound 22] (H-[Phe(4-Cl)][dC][Phe(4-NHCONH2)][dW]KTC[dPhe(4-NHCONH2)]G-OH; disulfide 2-7) ?
[reply] > 1000 nM

====

- test.target: hSSTR5 (Homo sapiens, UniProt P35346)
- Construct: expressed in transfected cells; host or cells: CHO-K1 or CCL39 cells
- Sequence (P35346 whole entry): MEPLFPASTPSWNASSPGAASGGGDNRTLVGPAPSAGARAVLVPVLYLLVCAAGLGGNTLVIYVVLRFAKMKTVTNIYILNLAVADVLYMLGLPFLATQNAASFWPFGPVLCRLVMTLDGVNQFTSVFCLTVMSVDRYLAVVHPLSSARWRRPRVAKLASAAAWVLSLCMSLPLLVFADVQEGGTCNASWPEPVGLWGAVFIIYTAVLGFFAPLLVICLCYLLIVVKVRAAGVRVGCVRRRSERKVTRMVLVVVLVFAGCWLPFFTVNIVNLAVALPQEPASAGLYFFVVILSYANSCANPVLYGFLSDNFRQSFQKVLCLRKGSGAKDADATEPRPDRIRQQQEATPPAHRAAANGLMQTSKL
- assay.explanation: Receptor autoradiography, displacement of 125I-[Leu8,D-Trp22,Tyr25]-SRIF-28 from membrane pellet sections
- Format: binding
- assay.conditions: Table 3; mean ± SEM when N ≧ 3; read-out: sst5 binding affinity (IC50)
Bridge positions count the residues as written; N and C are the ends. Square brackets hold non-standard residues; d marks the D form. Peptide text beside a SMILES is read from it. * marks the point of attachment. ξ: configuration not given here. DOTA = O=C(O)CN1CCN(CC(=O)O)CCN(CC(=O)*)CCN(CC(=O)O)CC1; Phe(4-NO2) = N[C@@H](Cc1ccc([N+](=O)[O-])cc1)C(=O)O; dPhe(4-NHCONH2) = NC(=O)Nc1ccc(C[C@@H](N)C(=O)O)cc1; ξDihydroorotoyl = O=C1CC(C(=O)*)NC(=O)N1; Phe(4-NH2) = Nc1ccc(C[C@H](N)C(=O)O)cc1; 2Nal = N[C@@H](Cc1ccc2ccccc2c1)C(=O)O
test.readout: IC50

For orientation, consider the following solved cases.
molecule	IC50
C[C@@H](O)[C@@H]1NC(=O)[C@H](CCCCN)NC(=O)[C@@H](Cc2ccc(NC(N)=O)cc2)NC(=O)[C@H](Cc2ccc(O)cc2)NC(=O)[C@H](NC(=O)[C@H](Cc2ccc([N+](=O)[O-])cc2)NC(=O)CN2CCN(CC(=O)O)CCN(CC(=O)O)CCN(CC(=O)O)CC2)CSSC[C@@H](C(=O)N[C@@H](Cc2ccc3ccccc3c2)C(N)=O)NC1=O [Peptide No. 5] ({DOTA}-[Phe(4-NO2)][dC]Y[dPhe(4-NHCONH2)]KTC[2Nal]-NH2; disulfide 2-7)	> 1000 nM
C[C@@H](O)[C@@H]1NC(=O)[C@H](CCCCN)NC(=O)[C@@H](Cc2ccc(NC(N)=O)cc2)NC(=O)[C@H](Cc2ccc(O)cc2)NC(=O)[C@H](NC(=O)[C@H](Cc2ccc([N+](=O)[O-])cc2)NC(=O)CN2CCN(CC(=O)O)CCN(CC(=O)O)CCN(CC(=O)O)CC2)CSSC[C@@H](C(=O)N[C@H](Cc2ccc(O)cc2)C(N)=O)NC1=O [Peptide No. 3] ({DOTA}-[Phe(4-NO2)][dC]Y[dPhe(4-NHCONH2)]KTC[dY]-NH2; disulfide 2-7)	> 1000 nM
C[C@@H](O)[C@@H]1NC(=O)[C@H](CCCCN)NC(=O)[C@@H](Cc2c[nH]c3ccccc23)NC(=O)[C@H](Cc2ccc(O)cc2)NC(=O)[C@H](NC(=O)[C@H](Cc2ccc([N+](=O)[O-])cc2)NC(=O)CN2CCN(CC(=O)O)CCN(CC(=O)O)CCN(CC(=O)O)CC2)CSSC[C@@H](C(=O)N[C@H](Cc2ccc(O)cc2)C(N)=O)NC1=O [compound 2]	> 1000 nM
C[C@@H](O)[C@@H]1NC(=O)[C@H](CCCCN)NC(=O)[C@@H](Cc2ccc(NC(N)=O)cc2)NC(=O)[C@H](Cc2ccc(NC(=O)C3CC(=O)NC(=O)N3)cc2)NC(=O)[C@H](NC(=O)[C@@H](N)Cc2ccc([N+](=O)[O-])cc2)CSSC[C@@H](C(=O)N[C@@H](Cc2ccc3ccccc3c2)C(N)=O)NC1=O (some centres unmarked) [compound 6] (H-[Phe(4-NO2)][dC][Phe(4-NH2)](ξDihydroorotoyl)[dPhe(4-NHCONH2)]KTC[2Nal]-NH2; disulfide 2-7)	> 1000 nM

[ask] Kindly state the measured IC50 obtained for C[C@@H](O)[C@@H]1NC(=O)[C@H](CCCCN)NC(=O)[C@@H](Cc2c[nH]c3ccccc23)NC(=O)[C@H](Cc2ccc(NC(N)=O)cc2)NC(=O)[C@H](NC(=O)[C@H](Cc2ccc(Cl)cc2)NC(=O)CN2CCN(CC(=O)O)CCN(CC(=O)O)CCN(CC(=O)O)CC2)CSSC[C@@H](C(=O)N[C@@H](Cc2ccc3ccccc3c2)C(N)=O)NC1=O [Peptide No. 14] with hSSTR5 (Homo sapiens, UniProt P35346).
[reply] > 1000 nM
